system: M. abscessus ATCC 19977 (pre-induced); assay: microbe, parasite or virus in culture; format: cell-based, Mycobacterium abscessus; settings: clarithromycin 0 μg/ml, partner antibiotic 64 μg/ml
Provide the reported Percentage of bacterial growth of each item.
Answers are plain numbers, in %.

Dear colleague, could you please provide Percentage of bacterial growth for the compounds listed below?
1. C[C@@H](O)[C@H]1C(=O)N2C(C(=O)O)=C(SCCN=CN)C[C@H]12 [imipenem]
2. CN(C)c1cc(NC(=O)CNC(C)(C)C)c(O)c2c1C[C@H]1C[C@H]3[C@H](N(C)C)C(O)=C(C(N)=O)C(=O)[C@@]3(O)C(O)=C1C2=O [tigecycline]
3. CN[C@H](CC(C)C)C(=O)N[C@H]1C(=O)N[C@@H](CC(N)=O)C(=O)N[C@H]2C(=O)N[C@H]3C(=O)N[C@H](C(=O)N[C@H](C(=O)O)c4cc(O)cc(O)c4-c4cc3ccc4O)[C@H](O)c3ccc(c(Cl)c3)Oc3cc2cc(c3O[C@@H]2O[C@H](CO)[C@@H](O)[C@H](O)[C@H]2O[C@H]2C[C@](C)(N)[C@H](O)[C@H](C)O2)Oc2ccc(cc2Cl)[C@H]1O [vancomycin]
4. COc1c(N2C[C@@H]3CCCN[C@@H]3C2)c(F)cc2c(=O)c(C(=O)O)cn(C3CC3)c12 [moxifloxacin]

[16.6, 10.1, 83.1, 0.6]

Recorded Percentage of bacterial growth of CO[C@H]1/C=C/O[C@@]2(C)Oc3c(C)c(O)c4c(c3C2=O)C2=NC3(CCN(CC(C)C)CC3)NC2=C(NC(=O)/C(C)=C\C=C\[C@H](C)[C@H](O)[C@@H](C)[C@@H](O)[C@@H](C)[C@H](OC(C)=O)[C@@H]1C)C4=O [rifabutin] , please.
1.2
